Test: qHTS RealTime-Glo MT Cell Viability Assay in HepG2 cells - 24 hour (AID 1224867); also: nearly all actives have a fitted effect of over 50% in size
Details: RealTime-Glo luminescence; series mostly up to 76.8 µM
Inconclusive results are not listed. The source made the active and inactive calls. Calls follow the shape of the dose curve; as a rule, active = well fitted cell-killing curve with a large enough effect in the repeat runs; inconclusive = weak or mixed curves; inactive = flat fitted curve, though single readings scatter.
Write down one outcome, taken from active, inactive

Solved entries (count: 3):
molecule | class
O=C(Cl)c1ccccc1F | inactive
CCCCC(CC)COC(=O)c1ccccc1C(=O)OCC(CC)CCCC (stereo unspecified) | inactive
CCN(CC)CCc1c[nH]c2ccccc12 | inactive

[Q] What call does the record list for CC(C)c1c(CN(C)C(C)Cc2ccccc2)n(C)n(-c2ccccc2)c1=O (stereo unspecified) ?
[A] inactive

[Q] Assay outcome for NC1CCC(CC2CCC(N)CC2)CC1 (stereo unspecified) : what was it?
[A] inactive

----------
Experiment: qHTS assay to identify small molecule antagonists of the estrogen related receptor (ERR) signaling pathway from Tox21 library - cell viability counter screen (AID 1224834); also: nearly all actives have a fitted effect of over 30% in size
Conditions: ERR reporter cells viability, CellTiter-Fluor, 17.5 h; series mostly up to 92.4 µM
Inconclusive results are not listed. Calls of active or inactive are those of the source. The call rests on the fitted dose curve; in most records, active means well fitted cell-killing curve with a large enough effect in the repeat runs; inconclusive means weak or mixed curves; inactive means flat fitted curve, though single readings scatter.
Form entry, call: pick from active, inactive

Known results for compounds:
compound | class
C#CC1(O)CCCCC1 | inactive
CC(=O)O.CC(=O)O.CC(=O)O.CC(=O)O.CC(=O)O.CC(=O)O.CC(=O)O.O.O.[Cr].[Cr].[Cr] | inactive
CN/C(=N\[N+](=O)[O-])NCc1cnc(Cl)s1 | inactive
CCCCC(CC)COC(=O)c1ccccc1C(=O)OCC(CC)CCCC (stereo unspecified) | inactive
C[C@@H]1CC2=CC(=O)CC[C@@H]2[C@H]2CC[C@@]3(C)[C@@H](CC[C@]3(C)O)[C@@H]21 | inactive

We next turn to a different compound, shown below.
[Q] Could you please tell me the result logged for CC(O)C(=O)[O][Hg][c]1ccccc1 (stereo unspecified) in this assay?
[A] active

----------
Molecular target: Aryl hydrocarbon receptor (Homo sapiens) (UniProt P35869)
Sequence (P35869 whole entry, looked up): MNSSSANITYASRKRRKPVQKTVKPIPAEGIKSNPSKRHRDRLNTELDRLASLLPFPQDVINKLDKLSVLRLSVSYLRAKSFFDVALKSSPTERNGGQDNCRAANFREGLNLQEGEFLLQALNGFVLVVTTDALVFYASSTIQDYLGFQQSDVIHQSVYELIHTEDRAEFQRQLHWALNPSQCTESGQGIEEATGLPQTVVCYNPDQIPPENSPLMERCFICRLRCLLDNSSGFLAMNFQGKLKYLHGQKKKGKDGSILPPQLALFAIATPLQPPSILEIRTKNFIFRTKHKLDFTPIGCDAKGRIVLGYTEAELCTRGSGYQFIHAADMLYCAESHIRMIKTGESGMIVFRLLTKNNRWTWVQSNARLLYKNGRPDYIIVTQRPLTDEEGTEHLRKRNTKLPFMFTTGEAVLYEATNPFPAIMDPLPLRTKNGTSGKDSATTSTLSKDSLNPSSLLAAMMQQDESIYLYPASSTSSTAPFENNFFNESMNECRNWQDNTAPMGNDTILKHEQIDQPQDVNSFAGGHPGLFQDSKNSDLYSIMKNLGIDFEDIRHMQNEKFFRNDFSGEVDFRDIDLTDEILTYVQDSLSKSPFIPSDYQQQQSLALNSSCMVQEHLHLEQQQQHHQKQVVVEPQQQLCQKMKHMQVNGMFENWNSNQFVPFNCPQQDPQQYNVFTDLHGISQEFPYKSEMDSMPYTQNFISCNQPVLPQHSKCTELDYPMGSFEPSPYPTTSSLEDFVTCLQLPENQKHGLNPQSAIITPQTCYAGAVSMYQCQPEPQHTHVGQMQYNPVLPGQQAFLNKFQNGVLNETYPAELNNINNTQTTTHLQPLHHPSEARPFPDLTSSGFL
Assay: qHTS assay to identify small molecule that activate the aryl hydrocarbon receptor (AhR) signaling pathway (AID 743085);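 also: HG2L7.5c1 human HepG2 liver cells with stably integrated DRE-driven firefly reporter; nearly all actives have a fitted effect of over 15% in size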
Details: HepG2 AhR-luc (HG2L7.5c1), luciferase, 24 h; series mostly up to 70.3 µM
Inconclusive results are not listed. Activity calls are given as the source filed them. The call rests on the fitted dose curve; in most records, active means well fitted activation curve with a large enough effect in the repeat runs; inconclusive means weak or mixed curves; inactive means no such curve, though single readings can be large or run the other way.
measured-metric: outcome

compound | outcome
CSC1=N[C@@](C)(c2ccccc2)C(=O)N1Nc1ccccc1 | inactive
CCCCN(CCCC)C(=S)[S-].CCCCN(CCCC)C(=S)[S-].[Ni+2] | inactive
CCCCON=O | inactive
COC(=O)c1ccccc1S(=O)(=O)NC(=O)Nc1nc(C)nc(OC)n1 | inactive
CN1CCc2cc(Cl)c(O)cc2[C@H]2c3ccccc3CC[C@@H]21 | inactive
CC(C)(C)c1ccc(OP(=O)(Oc2ccccc2)Oc2ccccc2)cc1 | inactive
CC(C)c1c(CN(C)C(C)Cc2ccccc2)n(C)n(-c2ccccc2)c1=O (configuration not stated) | inactive
ClC1(Cl)C2(Cl)C3(Cl)C4(Cl)C(Cl)(Cl)C5(Cl)C3(Cl)C1(Cl)C5(Cl)C24Cl (configuration not stated) | inactive
COc1c2c(cc3c1OCO3)CCN(C)C2 | inactive
CC(Cc1ccc(O)cc1)NCC(O)c1cc(O)cc(O)c1 (configuration not stated) | inactive

Items follow; give outcome for each.
1. CCCN
2. C[N+]1(C)[C@@H]2CC[C@H]1CC(OC(=O)C(CO)c1ccccc1)C2 (some centres not stated)

[A]
1: inactive; 2: inactive

----------
Assay: qHTS assay to identify small molecule antagonists of the androgen receptor (AR) signaling pathway using the MDA cell line - cell viability counter screen (AID 743041; also: nearly all actives have a fitted effect of over 45% in size)
Settings: MDA-kb2 viability, CellTiter-Fluor, 16 h, cells co-treated with R1881 androgen agonist; series mostly up to 70.3 µM
Inconclusive results are not listed. Calls of active or inactive are those of the source. The call rests on the fitted dose curve; in most records, active means well fitted cell-killing curve with a large enough effect in the repeat runs; inconclusive means weak or mixed curves, or effect the other way; inactive means flat fitted curve, though single readings scatter.
Just give me one of these, please: true (1) = active, false (0) = inactive

// below: answered compounds
compound | class
COC(=O)/C=C(\C)OP(=O)(OC)OC | false (0)
Brc1ccc(Oc2ccc(Br)cc2Br)c(Br)c1 | false (0)
Clc1ccc(C(Cl)(Cl)Cl)cc1Cl | false (0)

[Q] # outcome recorded in this test, key = `CCN(CC)CCN1C(=O)CN=C(c2ccccc2F)c2cc(Cl)ccc21`
[A] false (0)

----------
Test: A CellTox Green Cytotoxicity Assay to monitor cytotoxicity in HEK293 cells - 24 hour (AID 1224875); also: nearly all actives have a fitted effect of over 45% in size
Conditions: CellTox Green fluorescence; series mostly up to 76.8 µM
Results filed as inconclusive are left out. Active and inactive are the calls of the source. Calls follow the shape of the dose curve; as a rule, active = well fitted activation curve with a large enough effect in the repeat runs; inconclusive = weak or mixed curves; inactive = flat fitted curve, though single readings scatter.
Write down one outcome, taken from true (1) = active, false (0) = inactive

Worked set:
compound | class
CNC(=O)CSP(=O)(OC)OC | false (0)
CC(C)=CCN1CC[C@@]2(C)c3cc(O)ccc3C[C@@H]1[C@@H]2C | false (0)
Nc1cc(Cl)ccc1Cl | false (0)
Brc1ccc(Oc2ccc(Br)cc2Br)c(Br)c1 | false (0)

[Q] Assay outcome for `Oc1ccc(Cl)c(Cl)c1` : what was it?
[A] false (0)

[Q] Hi, sorry to bother you, what did the test record for CC(C)C(Nc1ccc(C(F)(F)F)cc1Cl)C(=O)OC(C#N)c1cccc(Oc2ccccc2)c1 (configuration not stated) ?
[A] false (0)

[Q] Fill in: this test's call for `O=c1[nH]c(Cl)c(Cl)cc1Cl` is ___
[A] false (0)

[Q] Lab log entry: `Cc1ccn2nc(S(=O)(=O)Nc3c(F)cccc3F)nc2n1` — outcome as called in the assay?
[A] false (0)

[Q] Dear all, I need the recorded test outcome for CCOP(=S)(OCC)SC(CCl)N1C(=O)c2ccccc2C1=O (configuration not stated) , thank you.
[A] false (0)

[Q] Just curious, what result did `C#CC1(O)CCCCC1` get here?
[A] false (0)

[Q] What was the test verdict on `[F][Sn]([c]1ccccc1)([c]1ccccc1)[c]1ccccc1` ?
[A] true (1)

[Q] Field: outcome | Entry: `Cc1c([N+](=O)[O-])c(C)c([N+](=O)[O-])c(C(C)(C)C)c1[N+](=O)[O-]`
[A] false (0)

----------
Assay: qHTS assay for small molecules that induce genotoxicity in human embryonic kidney cells expressing luciferase-tagged ATAD5 - cell viability (AID 651634); also: nearly all actives have a fitted effect of over 25% in size
Conditions: HEK293T ATAD5-luc cells viability, CellTiter-Fluor, 15.5 h; series mostly up to 83.3 µM
From the text: National Center for Advancing Translational Sciences [NCATS] NIH Chemical Genomics Center [NCGC] U.S. Environmental Protection Agency [EPA] National Institutes of Environmental Health Sciences [NIEHS] National Toxicology Program [NTP] U.S. Food and Drug Administration [FDA] Enhanced Level of Genome Instability Gene 1 (ELG1; human ATAD5) protein levels increase in response to various types of DNA damage. […]
Results filed as inconclusive are left out. The source made the active and inactive calls. Calls follow the shape of the full dose curve.
Please answer using one outcome listed in YES (active), NO (inactive)

compound | class
CCc1cccc(C)c1N(C(=O)CCl)[C@@H](C)COC | NO
BrCCCBr | NO
S=C=Nc1ccccc1 | NO
Clc1cc(Cl)c(-c2cc(Cl)c(Cl)cc2Cl)cc1Cl | NO
C[N+]1(C)[C@@H]2CC[C@H]1CC(OC(=O)C(CO)c1ccccc1)C2 (stereo partly drawn) | NO
[F][Sn]([c]1ccccc1)([c]1ccccc1)[c]1ccccc1 | YES
COP(=S)(NC(C)C)Oc1ccc(C)cc1[N+](=O)[O-] (stereo not drawn) | NO
c1ccc2c(c1)cc1ccc3cccc4ccc2c1c34 | NO

[Q] Query: recorded result category for `CN1CCc2cc(Cl)c(O)cc2[C@H]2c3ccccc3CC[C@@H]21` in this test
[A] NO

[Q] Outcome? `CCCCCON=O`
[A] NO

[Q] // return assay outcome for `CCCCON=O`
[A] NO

[Q] Hello, I am checking results. What call was entered for `CN/C(=N\[N+](=O)[O-])NCc1cnc(Cl)s1` ?
[A] NO

[Q] Field: outcome | Entry: `N#Cc1ccc(N(CC(N)=O)CC(F)(F)F)cc1C(F)(F)F`
[A] NO

----------
Experiment: qHTS assay to identify small molecule antagonists of the retinoid acid receptor (RAR) signaling pathway - cell viability counter screen (AID 1159551); also: nearly all actives have a fitted effect of over 35% in size
Conditions: C3RL4 cells viability, ATP luminescence (CellTiter-Glo), 6 h; series mostly up to 92.4 µM
Inconclusive results are not listed. The source made the active and inactive calls. Calls come from the whole dose curve; as a rule, active = well fitted cell-killing curve with a large enough effect in the repeat runs; inconclusive = weak or mixed curves, or effect the other way; inactive = flat fitted curve, though single readings scatter.
Please state which outcome applies, choosing from active, inactive

Example results:
molecule | class
CO/N=C(/C1=NOCCO1)c1ccccc1Oc1ncnc(Oc2ccccc2Cl)c1F | inactive
CCCCCCCc1ccc(O)cc1 | inactive
C[C@@H]1CC2=CC(=O)CC[C@@H]2[C@H]2CC[C@@]3(C)[C@@H](CC[C@]3(C)O)[C@@H]21 | inactive
BrCC(Br)(Br)Br | inactive
C=Cc1cccc(CCl)c1 | inactive
Cc1c([N+](=O)[O-])cc2c(c1[N+](=O)[O-])C(C)(C)CC2(C)C | inactive
CCOP(=S)(OCC)SC(CCl)N1C(=O)c2ccccc2C1=O (configuration not stated) | inactive
CNC(=O)O/N=C(\C)C(C)S(C)(=O)=O (configuration not stated) | inactive

[Q] Record lookup: outcome of this test for `Oc1ccc(Cl)c(Cl)c1` ?
[A] inactive

[Q] What outcome does the record of this test show for `CSSC` ?
[A] inactive

[Q] Could you kindly confirm the outcome this assay logged for CC(Cl)CCl (configuration not stated) ?
[A] inactive

[Q] // outcome(item) with item = `COP(=S)(OC)Oc1nc(Cl)c(Cl)cc1Cl`
[A] inactive

[Q] Tell me the assay call for `O=C(Nc1ccc(F)cc1F)c1cccnc1Oc1cccc(C(F)(F)F)c1` please.
[A] inactive

[Q] Could you please tell me the result logged for CC(C)C(Nc1ccc(C(F)(F)F)cc1Cl)C(=O)OC(C#N)c1cccc(Oc2ccccc2)c1 (configuration not stated) in this assay?
[A] inactive

[Q] // param item: `O=C(N[C@H]1N=C(c2ccccc2F)c2cccc3c2N(CC3)C1=O)c1cc2ccccc2[nH]1` ; yields the recorded call
[A] inactive

[Q] Status in this test for `CCC[CH2][Sn]([CH2]CCC)([CH2]CCC)[CH2]CCC` ?
[A] active

[Q] Which outcome did this test record for the molecule `Nc1ccc(Cl)cc1C(=O)c1ccccc1F` ?
[A] inactive

[Q] # outcome recorded in this test, key = `CCCN`
[A] inactive

[Q] What classification did `N#Cc1c[nH]cc1-c1cccc2c1OC(F)(F)O2` end up with in this test?
[A] inactive

[Q] Could you kindly confirm the outcome this assay logged for `O=C(O)[C@H](O)[C@@H](O)C(=O)O` ?
[A] inactive

[Q] Returns: the outcome recorded for `Cc1ccc(C)c2ccccc12` in this assay.
[A] inactive

[Q] What classification did `CCCCC/C=C\C/C=C\C/C=C\C/C=C\CCCC(=O)NCC(=O)O` end up with in this test?
[A] inactive

[Q] Answer briefly: the call reported for `CC(=O)[O][Sn]([c]1ccccc1)([c]1ccccc1)[c]1ccccc1` in this assay.
[A] active

[Q] What is the recorded call for this molecule in the test? `O=C(Cl)c1ccccc1F`
[A] inactive

[Q] Could you please tell me the result logged for `CCCCN(CCCC)C(=S)S` in this assay?
[A] inactive

[Q] How did this test come out for `CC1(C)[C@H](/C=C2\CCSC2=O)[C@@H]1C(=O)OCc1coc(Cc2ccccc2)c1` ?
[A] inactive

[Q] Answer briefly: the call reported for `C=CCBr` in this assay.
[A] inactive

Every entry's value here was drawn from PubChem BioAssay (Tox21).
